- System: Escherichia coli
- experiment.summary: Antibacterial activity against tolC, speE deficient Escherichia coli GD106
- Format: functional
A collection of compounds and their measured MIC
Kindly provide the numeric value in µg/mL only, without the unit symbol.

For orientation, consider the following solved cases.
CCn1cc(C(=O)O)c(=O)c2cc(F)c(N3CCNCC3)cc21    0.005
CC[C@H]1OC(=O)[C@H](C)[C@@H](O[C@H]2C[C@@](C)(OC)[C@@H](O)[C@H](C)O2)[C@H](C)[C@@H](O[C@@H]2O[C@H](C)C[C@H](N(C)C)[C@H]2O)[C@](C)(O)C[C@@H](C)C(=O)[C@H](C)[C@@H](O)[C@]1(C)O    1
CN[C@@H]1[C@H](O)[C@H](NC)[C@H]2O[C@@]3(O)C(=O)C[C@@H](C)O[C@H]3O[C@@H]2[C@H]1O    25

Inquiry: Item "CO[C@@H]1[C@@H](OC(N)=O)[C@@H](O)[C@H](Oc2ccc3c(O)c(NC(=O)c4ccc(O)c(CC=C(C)C)c4)c(=O)oc3c2C)OC1(C)C" has what recorded MIC?
Reply text: 1

Inquiry: Item "CC1(C)S[C@@H]2[C@H](NC(=O)[C@H](N)c3ccccc3)C(=O)N2[C@H]1C(=O)O" has what recorded MIC?
Reply text: 5

Inquiry: Item "NCC[C@H](O)C(=O)N[C@@H]1C[C@H](N)[C@@H](O[C@H]2O[C@H](CN)[C@@H](O)[C@H](O)[C@H]2O)[C@H](O)[C@H]1O[C@H]1O[C@H](CO)[C@@H](O)[C@H](N)[C@H]1O" has what recorded MIC?
Reply text: 8

Inquiry: Item "NC[C@H]1O[C@H](O[C@H]2[C@H](O)[C@@H](O[C@H]3O[C@H](CO)[C@@H](O)[C@H](N)[C@H]3O)[C@H](N)C[C@@H]2N)[C@H](O)[C@@H](O)[C@@H]1O" has what recorded MIC?
Reply text: 6.25
